Kindly state inhibition at 10 µM for each of the entries shown.
tested on: MCF7; assay: Antiproliferative activity against MCF7 cell line at 10 uM; assay type: functional; settings: Homo sapiens
Report the figure in % without appending any unit label.

Reported inhibition at 10 µM of C[C@@H]1C[C@H](C)C[C@H](C)[C@@H](O)CC(=O)O[C@H]([C@H](C)CC(=O)O)C/C=C/C=C(/C#N)[C@H](O)[C@@H](C)C1 : 12

So for C[C@@H]1C[C@H](C)C[C@H](C)[C@@H](O)CC(=O)O[C@H](C[C@H](C)C(=O)O)C/C=C/C=C(/C#N)[C@H](O)[C@@H](C)C1 , the logged inhibition at 10 µM turned out to be 76

Input C[C@@H]1C[C@H](C)C[C@H](C)[C@@H](O)CC(=O)O[C@H]([C@H](C)[C@H](C)C(=O)O)C/C=C/C=C(/C#N)[C@H](O)[C@@H](C)C1 . Output inhibition at 10 µM: 9

Reported inhibition at 10 µM ( C[C@@H]1C[C@H](C)C[C@H](C)[C@@H](O)CC(=O)O[C@H]([C@@H]2CC[C@H]2C(=O)O)C/C=C/C=C(/C#N)[C@H](O)[C@@H](C)C1 ) = 9
